# System: 898857-211-R-J1-PDC complex spheroids, growth % test/control;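 further: spheroids exposed to compound for seven days before readout; 100% = DMSO vehicle control wells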
# experiment: Anticancer human tumor 898857-211-R-J1-PDC patient-derived melanoma cell line growth inhibition [RAS]
# measurement_conditions: second compound 1 µM; first compound 10 µM; hits give low values
# From the text: RAS pathway inhibitors in Combinations in Complex Spheroids A high-throughput screen of multi-cell type tumor spheroids was designed to identify active combinations of RAS pathway inhibitors and targeted small molecules. Complex spheroids include a stromal component modeled by human endothelial cells (HUVEC) and fibroblasts modeled by human mesenchymal stem cells (MSCs). […] Compounds. […] If the clinical Cmax for an agent had not been determined, the highest concentration tested was 10 microM. […]
measurement_name: viability, T/C

Value of measured viability, T/C for the entry C[C@@H](NC(=O)c1ncnc(N)c1Cl)c1ncc(C(=O)Nc2cc(C(F)(F)F)c(Cl)cn2)s1 + C=CC(=O)N1CCN(c2nc(OCC3CCCN3C)nc3c(F)c(-c4nc(N)cc(C)c4C(F)(F)F)c(Cl)cc23)C(C)C1 : 36.7%

Looking up NC1c2ccccc2OC12CCN(c1cnc3c(N4CCCc5ncccc54)n[nH]c3n1)CC2 (stereo unspecified) + C#Cc1c(F)ccc2cc(O)cc(-c3ncc4c(N5CC6CCC(C5)N6)nc(OCC56CCCN5CC(F)C6)nc4c3F)c12 , I found its viability, T/C recorded as 76%

# viability, T/C of CCC(CC)c1cc(NC2CCC(N)C2)n2nccc2n1 (stereo unspecified) + C#Cc1c(F)ccc2cc(O)cc(-c3ncc4c(N5CC6CCC(C5)N6)nc(OCC56CCCN5CC(F)C6)nc4c3F)c12 = 0.38%

Form field viability, T/C, entry NC1c2ccccc2OC12CCN(c1cnc3c(N4CCCc5ncccc54)n[nH]c3n1)CC2 (stereo unspecified) + C=CC(=O)N1CCN(c2nc(OCC3CCCN3C)nc3c(F)c(-c4nc(N)cc(C)c4C(F)(F)F)c(Cl)cc23)C(C)C1 : 58%

So for CC(=O)OC12COC1CC(O)C1(C)C(=O)C(O)C3=C(C)C(OC(=O)C(O)C(NC(=O)OC(C)(C)C)c4ccccc4)CC(O)(C(OC(=O)c4ccccc4)C21)C3(C)C (stereo unspecified) + C#Cc1c(F)ccc2cc(O)cc(-c3ncc4c(N5CC6CCC(C5)N6)nc(OCC56CCCN5CC(F)C6)nc4c3F)c12 , the logged viability, T/C turned out to be 24.7%

Reported viability, T/C for CCC(CC)c1cc(NC2CCC(N)C2)n2nccc2n1 (stereo unspecified) + C=CC(=O)N1CCN(c2nc(OCC3CCCN3C)nc3c(F)c(-c4nc(N)cc(C)c4C(F)(F)F)c(Cl)cc23)C(C)C1 was 0.24%

Entry CC1(O)CCCC1n1c(=O)c(C(F)F)cc2cnc(NC3CCN(S(C)(=O)=O)CC3)nc21 (stereo unspecified) + C=CC(=O)N1CCN(c2nc(OCC3CCCN3C)nc3c(F)c(-c4nc(N)cc(C)c4C(F)(F)F)c(Cl)cc23)C(C)C1 , viability, T/C reported as 10.9%

The molecule listed as Cc1nc(N2CCC3(CC2)COC(C)C3N)c(CO)nc1Sc1ccnc(N)c1Cl (stereo unspecified) + C#Cc1c(F)ccc2cc(O)cc(-c3ncc4c(N5CC6CCC(C5)N6)nc(OCC56CCCN5CC(F)C6)nc4c3F)c12 has a reported viability, T/C of 108%

The molecule identified as C[C@@H](NC(=O)c1ncnc(N)c1Cl)c1ncc(C(=O)Nc2cc(C(F)(F)F)c(Cl)cn2)s1 + C#Cc1c(F)ccc2cc(O)cc(-c3ncc4c(N5CC6CCC(C5)N6)nc(OCC56CCCN5CC(F)C6)nc4c3F)c12 registered its viability, T/C at 42%

Given item CC(Nc1ccc2c(c1)OCCn1cc(N3C(=O)OCC3C(F)F)nc1-2)C(N)=O (stereo unspecified) + C#Cc1c(F)ccc2cc(O)cc(-c3ncc4c(N5CC6CCC(C5)N6)nc(OCC56CCCN5CC(F)C6)nc4c3F)c12 , the value recorded as its viability, T/C is 65.2%

Notebook: CC(=O)OC12COC1CC(O)C1(C)C(=O)C(O)C3=C(C)C(OC(=O)C(O)C(NC(=O)OC(C)(C)C)c4ccccc4)CC(O)(C(OC(=O)c4ccccc4)C21)C3(C)C (stereo unspecified) + C=CC(=O)N1CCN(c2nc(OCC3CCCN3C)nc3c(F)c(-c4nc(N)cc(C)c4C(F)(F)F)c(Cl)cc23)C(C)C1 , viability, T/C read as 15.2%

Origin of measurements: PubChem BioAssay AID2060882
